Where these numbers come from: ChEMBL document CHEMBL4257584

protocol: Drug uptake in BALB/c mouse heart at 25 mg/kg, po via gavage measured after 4 hrs post dose by […]
Type: ADME, organism-based
settings: read-out: Drug uptake
Classification field: 1 = concentration at 4 h at or over 3 µM; 0 = concentration at 4 h under 3 µM.

INSERT INTO measurements (record_smiles, assigned_label) VALUES
  ('O=C(N[C@@H](Cn1ccnc1)c1c(F)cc(-c2ccc(F)cc2)cc1F)c1ccc(-c2nnc(-c3ccccc3)o2)cc1', 1),
  ('O=C(N[C@@H](Cn1ccnc1)c1ccc(-c2ccccc2)cc1Cl)c1ccc(-c2nnc(-c3ccccc3)o2)cc1', 1);

Ask: Could you tell me if the measured concentration at 4 h of O=C(N[C@@H](Cn1ccnc1)c1ccc(-c2ccc(F)cc2)cc1Cl)c1ccc(-c2nnc(-c3ccccn3)o2)cc1 reaches 3 µM or more?
Result: 0

Ask: Does the compound O=C(N[C@@H](Cn1ccnc1)c1ccc(Cl)cc1Cl)c1ccc(-c2nnc(-c3ccc(F)c(F)c3)o2)cc1 have recorded concentration at 4 h that is 3 µM or more?
Result: 1

Ask: Entry CS(=O)(=O)c1ccc(-c2ccc([C@H](Cn3ccnc3)NC(=O)c3ccc(-c4nnc(-c5ccccc5)o4)cc3)c(Cl)c2)cc1 : is its concentration at 4 h no less than 3 µM?
Result: 0
